The measured values listed here are drawn from patent US20250206841A1.

# target-entity: T1, human Trop-2 expressed on cell surface (human, UniProt P09758 27-323)
# T1 sequence (looked up): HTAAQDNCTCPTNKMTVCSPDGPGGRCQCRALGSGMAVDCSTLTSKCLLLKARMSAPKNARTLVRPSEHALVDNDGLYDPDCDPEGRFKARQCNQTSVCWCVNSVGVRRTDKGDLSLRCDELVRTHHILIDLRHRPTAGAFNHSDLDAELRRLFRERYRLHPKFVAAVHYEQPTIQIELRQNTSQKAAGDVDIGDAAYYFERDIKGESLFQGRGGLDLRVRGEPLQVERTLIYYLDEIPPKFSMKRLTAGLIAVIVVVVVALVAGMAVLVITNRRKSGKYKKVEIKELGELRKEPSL
# protocol-text: cell-based or functional assay
reported-endpoint: Internalization %, MCF-7, 0.25 µg/ml, 1 h (%)
Number only, in %; omit the unit.

Below, each entry is followed by its recorded Internalization %, MCF-7, 0.25 µg/ml, 1 h result.
66A1 (antibody, V domains shown, Rabbit-derived clone; LEM construct: VH + rabbit IgG CH1 + human IgG1 CH2-CH3) VH: QEQLKESGGGLVQPGGSLKLSCKASGFDFNNYGVSWVRQAPGKGLEWIAYIYPAFHNTYYASWVNGRFTISSHNAQNTLYLQLNSLTAADTATYFCARDAGGTDYAYNLWGPGTLVTVSS VL: DVVMTQTPASVEAAVGGTVSINCQASEDIESYLAWYQQKPGQPPKLLIYKASTLASGVSSRFKGSGSGKQFTLTISGVECADAATYYCQQVLTIGNVDNPFGGGSEVVVK	20
5D4-2 (antibody, V domains shown) VH: QQLEESGGGLVKPEGSLTLTCKGSGFDFSGTYWMWWVRQAPGKGLEWIASIYVGSGSSTYYASWAKGRFTISSTSSTAVTLQATSLTAADTATYFCARGATNNVFMNYFNLWGPGTLVTVSS VL: FEMTQTPSSVSEPVGGTVTIKCQASEDISSNLGWYQQKPGQPPKLLIYGASTLASGVPSRFKGSGSGTEFTLTISDLEAADAATYYCQTSYYIDDGVNGFGGGTEVVVK	51
63H3 (antibody, V domains shown, Rabbit-derived clone; LEM construct: VH + rabbit IgG CH1 + human IgG1 CH2-CH3) VH: QEQLKESGGGLVQPGGSLKLSCKASGFDFNSYGVSWVRQAPGKGLEWIAYIYPAFHNAYYANWVNGRFTISSDNAQNTVDLQLNSLTAADTATYFCARDAGGTDYNYNLWGPGTLVTVSS VL: DVVMTQTPASVEVAVGGTVTLKCQASEDIESYSAWYQQKPGQPPNLLIYEASKLASGVSSRFSGSGYGTEFTLTISGVECADAATYYCQQALTIGNVDNPFGGGSEVVVR	15
5D4-1 (antibody, V domains shown) VH: QQLEESGGGLVKPEGSLTLTCKGSGFDFSGTYWMWWVRQAPGKGLEWIAPIYVGSGSSTYYASWAKGRFTISSTSSTAVTLQATSLTAADTATYFCARGATNNVFMNYFNLWGPGTLVTVSS VL: FEMTQTPSSVSEPVGGTVTIKCQASEDISSNLGWYQQKPGQPPKLLIYGASTLASGVPSRFKGSGSGTEFTLTISDLEPADAATYYCQTSYYIDDGVNGFGGGTEVVVK	59

Record request: Internalization %, MCF-7, 0.25 µg/ml, 1 h value, item 72F12 (antibody, V domains shown, Rabbit-derived clone; LEM construct: VH + rabbit IgG CH1 + human IgG1 CH2-CH3) VH: QEQLKESGGGLVQPGGSLKLSCKASGFDFNNYGVSWVRQAPGKGLEWIAYIYPAFHNTYYATWVNGRFTISSHNAQNTLYLQLNSLTAADTATYFCARDAGSVDYNFNLWGPGTLVTVSS VL: DVVMTQTPASVEVAVGGTVTIKCQASKNIDSNLAWYQQKPGQPPKQLIYAASTLASGVSSRFSGSGYGAEFTLTISGVECADAATYYCQQALTIGNVDNPFGGGSEVVVK
21

Record request: Internalization %, MCF-7, 0.25 µg/ml, 1 h value, item 9F7 (antibody, V domains shown, Rabbit-derived clone; LEM construct: VH + rabbit IgG CH1 + human IgG1 CH2-CH3) VH: QEQLKESGGGLVQPGGSLTLSCKASGFDFNNYGVSWVRQAPGKGLEWIGYIYPAYHNTYYATWVNGRFTISSHNAQNTLYLQLNTLTAADTATYFCARDTGSTDYNFNLWGPGTLVTVSS VL: DVVMTQTPASVEVAVGGTVTIKCQASEDIESYLAWYQQKPGQPPKLLIYEASKLASGVSSRFSGGGYGTEFTLTISGVECADAATYYCQQALTVGNVDNPFGGGSEVVVK
2
